The entries below come with measured melting point values attached.

Recorded results for 2 compounds are shown here.
Query: Need melting point, item C#CCN1CCS(=O)(=O)CC1
Result: 114 to 116 °C

Query: Now try O=C1CC2(CCCC2)CC(=O)O1 .
Result: 64 to 66 °C

New cases:
Query: Value lookup for melting point; key = NC(=O)C1=CNCCC1
Result: 203 to 205 °C

----------
property: melting point (°C)

Query: Quick check: melting point of N#C/C(=C\c1ccc(Cl)cc1)c1nc(-c2cccc3ccccc23)cs1 ?
Result: 130

P. Nc1ccc(O)cc1[N+](=O)[O-]
Q. CC1(C)CCCCC1O (configuration not stated)
Query: Could you check which of P and Q has a smaller value for melting point? Write the label of whichever entry you select.
Result: Q

----------
Measured melting point of individual entries

Recorded results for 3 compounds are shown here.
Query: Please report the recorded melting point for Cc1ccc(-n2nc(C)cc2O)cc1 .
Result: 132 to 133 °C

Query: Next compound: Cc1cc(=O)oc2[nH]nc(C)c12
Result: 251 to 252 °C

Query: Repeat with CCOC(=O)C1CN(Cc2ccco2)C(=O)C1=O (centres undefined)
Result: 127 to 129 °C

Consider the record given below.
Query: I am curious: what melting point value has been reported for Cc1ncc(C#N)c(N)n1 ?
Result: 249 to 252 °C

----------
The following molecules are shown together with reported melting point values.

Below, 7 molecules whose answers are already recorded.
Query: Please report the recorded melting point for O=C(Cl)c1cccc2c1OCCCO2 .
Result: 36 to 38 °C

Query: How about this molecule: COC(=O)c1ccc(S(=O)(=O)c2ccc(C(=O)OC)cc2)cc1
Result: 193 to 200 °C

Query: What would you report for CC(C)n1nnc2cc(C(=O)O)ccc21 ?
Result: 222 to 227 °C

Query: Then Oc1cccc(N2CCOCC2)c1 ?
Result: 136 to 138 °C

Query: Also, O=C1CCCN1c1ccc([N+](=O)[O-])cc1 please.
Result: 128 to 130 °C

Query: Can you check C=CCOc1cccc(O)c1C(C)=O next?
Result: 45.5 to 46.5 °C

Query: Please give the result for O=C(NCCCCO)OCC1c2ccccc2-c2ccccc21 too.
Result: 115 to 117 °C

Now for a further molecule.
Query: Consider the molecule ON=Cc1ccc(Cl)cc1Cl and give its measured melting point.
Result: 134 to 136 °C

----------
property: melting point (°C)

Query: # lookup: melting point of Cc1cc(C)c(P(c2c(C)cc(C)cc2C)c2c(C)cc(C)cc2C)c(C)c1
Result: 187

Query: Likewise for COc1ccccc1/C=C(\C(N)=O)c1nc2ccccc2s1 ?
Result: 174

----------
property: melting point (°C)

Known melting point results, listed for orientation:
Query: Need melting point of Cc1cc(C)cc(OCC2CNC(=O)O2)c1 (configuration not stated) , thanks.
Result: 122

Query: Please give the result for CC(C)(C)C(=O)Nc1ncccc1C(=O)O too.
Result: 280

Query: // repeat for CCc1ccc(-c2ccccc2)cc1 and report
Result: 35

Query: Follow-up entry: COC(=O)C(C)Oc1ccc(Oc2ccc(Cl)cc2Cl)cc1 (configuration not stated)
Result: 44

Query: Same read-out for CCOC(=O)C(C#N)=C(SCc1ccccc1)SCc1ccccc1 ?
Result: 82

A. CCCCC(CC)COC(C)=O (configuration not stated)
B. O=C(Cl)c1cccc2ccccc12
C. Clc1ccc(Cc2ccc(Cl)cc2)cc1
D. O=C1OC(/C=C/c2ccccc2)Cc2ccccc21 (configuration not stated)
E. O=C(O)c1ccc(O)c(C(=O)O)c1
Query: Arrange the 5 entries by melting point so the values rise. State the ranking by listing the labels in the requested order.
Result: A, B, C, D, E

The measured values listed here are drawn from a melting point compilation (Tetko et al.).
